Source: paper PMC7547085

B1: mouse tissue transglutaminase 2 C-terminal D3D4 domains (mTG2 D3D4) [modified: biotin on the AVI-tag; biotin on the AVI-tag] [mouse] / mouse full-length GPR56 (GPR56 FL), wild type, on HEK293T cells [mouse] (parent complex)
chain 1: TGVAMRIRVGDSMSMGNDFDVFAHIGNDTSETRECRLLLCARTVSYNGVLGPECGTEDINLTLDPYSENSIPLRILYEKYSGCLTESNLIKVRGLLIEPAANSYLLAERDLYLENPEIKIRVLGEPKQNRKLVAEVSLKNPLSDPLYDCIFTVEGAGLTKEQKSVEVSDPVPAGDLVKARVDLFPTDIGLHKLVVNFQCDKLKSVKGYRNVIIGPA
chain 2: GSPREDFRFCGQRNQTQQSTLHYDQSSEPHIFVWNTEETLTIRAPFLAAPDIPRFFPEPRGLYHFCLYWSRHTGRLHLRYGKHDYLLSSQASRLLCFQKQEQSLKQGAPLIATSVSSWQIPQNTSLPGAPSFIFSFHNAPHKVSHNASVDMCDLKKELQQLSRYLQHPQKAAKRPTAAFISQQLQSLESKLTSVSFLGDTLSFEEDRVNATVWKLPPTAGLEDLHIHSQKEEEQSEVQAYSLLLPRAVFQQTRGRRRDDAKRLLVVDFSSQALFQDKNSSQVLGEKVLGIVVQNTKVTNLSDPVVLTFQHQPQPKNVTLQCVFWVEDPASSSTGSWSSAGCETVSRDTQTSCLCNHLTYFAVLMVSSTEVEATHKHYLTLLSYVGCVISALACVFTIAAYLCSRRKSRDYTIKVHMNLLSAVFLLDVSFLLSEPVALTGSEAACRTSAMFLHFSLLACLSWMGLEGYNLYRLVVEVFGTYVPGYLLKLSIVGWGFPVFLVTLVALVDVNNYGPIILAVRRTPERVTYPSMCWIRDSLVSYVTNLGLFSLVFLFNLAMLATMVVQILRLRPHSQNWPHVLTLLGLSLVLGLPWALVFFSFASGTFQLVILYLFSIITSFQGFLIFLWYWSMRFQAQGGPSPLKNNSDSAKLPISSGSTSSSRI

variants of: B1; experiment: flow cytometry on cells; 5 nM TG2 D3D4 (tetramerized); GPR56 FL constructs expressed on HEK293T cells; n = 3; parent: 1; read off a plot

{"mut": "chain 2 R8E", "ratio to parent": "~4.7"}
{"mut": "chain 2 Q12A", "ratio to parent": "~0.69"}
{"mut": "chain 2 R79D", "ratio to parent": "~0.27"}
{"mut": "chain 2 A112R, chain 2 S114R", "ratio to parent": "~5.3"}
